Source: the Immune Epitope Database (IEDB)

- Study System: HLA-B*18:01
- Protocol Details: IEDB peptide-MHC binding, purified MHC/competitive/fluorescence; filed as Kd, often an IC50 or EC50 that approximates it; bounds were set here for any values at or beyond the usual limits of such assays
- Assay Context: source organism: Vaccinia virus Copenhagen
pKd: −log10 of the molar value.
We begin with a simple list: items and their reported pKd.
Experimental Readout: pKd

INSERT INTO results (seq_string, study_system, meas_value) VALUES
  ('RHDITGFIL', 'HLA-B*18:01', '≤ 4.70'),
  ('ALYSYASAK', 'HLA-B*18:01', '≤ 4.70');

---

- Study System: HLA-B*15:01
- Protocol Details: IEDB peptide-MHC binding, purified MHC/competitive/fluorescence; bounds were set here for any values at or beyond the usual limits of such assays
- Assay Context: source organism: Zaire ebolavirus
Experimental Readout: IC50

INSERT INTO measurements (seq_string, meas_value) VALUES
  ('IFRLMRTNF', '2.18 µM'),
  ('IQVHAEQGL', '33 µM'),
  ('TVAPPAPVY', '8.09 µM'),
  ('GQSPARTSS', '26 µM'),
  ('IRGFPRCRY', '≥ 242 µM'),
  ('IGLAWIPYF', '≥ 153 µM');

---

- Study System: HLA-B*40:02
- Protocol Details: IEDB peptide-MHC binding, purified MHC/competitive/radioactivity; filed as Kd, often an IC50 or EC50 that approximates it; bounds were set here for any values at or beyond the usual limits of such assays
- Assay Context: source organism: Mammarenavirus choriomeningitidis
pKd: −log10 of the molar value.
Experimental Readout: pKd

INSERT INTO measurements (seq_string, meas_value) VALUES
  ('AELLPDTTY', '≤ 4.39');

---

- Study System: HLA-A*31:01
- Protocol Details: IEDB peptide-MHC binding, purified MHC/direct/fluorescence; filed as Kd, often an IC50 or EC50 that approximates it; bounds were set here for any values at or beyond the usual limits of such assays
- Assay Context: source organism: Giardia lamblia ATCC 50803
Experimental Readout: Kd

INSERT INTO measurements (seq_string, meas_value) VALUES
  ('ARADGILRF', '≥ 20 µM');

---

- Study System: HLA-A*24:02
- Protocol Details: IEDB peptide-MHC binding, purified MHC/direct/fluorescence; filed as Kd, often an IC50 or EC50 that approximates it; bounds were set here for any values at or beyond the usual limits of such assays
- Assay Context: source organism: Escherichia coli O157:H7
Experimental Readout: Kd

INSERT INTO results (seq_string, meas_value) VALUES
  ('LLDPLYFEV', '≥ 20 µM');

---

We begin with a simple list: items and their reported Kd.
- Study System: HLA-B*44:03
- Protocol Details: IEDB peptide-MHC binding, purified MHC/competitive/radioactivity; filed as Kd, often an IC50 or EC50 that approximates it; bounds were set here for any values at or beyond the usual limits of such assays
- Assay Context: source organism: Dengue virus 1 Brazil/97-11/1997
Experimental Readout: Kd (nM)

INSERT INTO assay_data (seq_string, study_system, result_units, meas_value) VALUES
  ('GELCEDTMTY', 'HLA-B*44:03', 'nM', 25),
  ('VEGLSGATW', 'HLA-B*44:03', 'nM', 89.1);
